I'd appreciate it if you could supply folding stability dG unfold values for the items below.
- test description: folding stability dG unfold from chymotrypsin proteolysis; higher = more stable
Numbers only, in kcal/mol.

Solved cases (6 shown):
SAGGPGAEIWFIKIPIEIEMKMKRKRENDPDGNPRPEWEMEMKIEIPIEIYPIRVRLDPDGKIKSIEFSAGG [r13_148_TrROS] = 4.3
SAGGSAGGSAGGMVEVLPVPDGSTLERDPAGYVTRYDPATGTATTVPLADVELSPGSPELSAGGSAGGSAGG [r7_656_JUSTAS] = 0.679
SAGGSAGGSAGWNIEPKPEPERDPDGNPQPRMEIKIRVPPPTAEQAQEWAKENGLPVTVYSAGGSAGGSAGG [r17_114_TrROS] = -0.0462
SAGMVKTVTLSREEVEKLVRELGRSPEEMTLEEFAERLEELFPGATVTVTVDTKTGTYTITITFPPSLASAG [r5_264_JUSTAS] = 4.16
SAGGMIVEEETKPTPPLPDGTLVTESKVTIYINGKKITTTVKTTTLPDGTKVVETTLKGKKLKIILESAGGS [r16_448_JUSTAS] = 3.19
SAGGGMMVLKVSQPVLLLSTVTLPNGFPKFLPVSPLSLETTVTFTGSDQDAEELAAELKAQGATVTEESAGG [r13_452_JUSTAS] = 0.719

Continue with the sequence presented below.
stdin: Need folding stability dG unfold, item SAGGSAGGSDIEIIINPNMSLEQAKKFANYLAQENNIPIEIEIIPPPKPEPEPERDPEDGKPKSAGGSAGGS [r12_159_TrROS]
stdout: -0.232

---

- test description: folding stability dG unfold from trypsin proteolysis; higher = more stable
Note to self: values exactly at 1 kcal/mol are true (1). So folding stability dG unfold at or above 1 kcal/mol is true (1), below is false (0).

SAGRIHVMVFPLDPKDGKWEWVWTFTIDFKPGEKLTLDEIADDIPPKGYMVMIWFTPDTITITIWRRKDSAG [r5_269_TrROS] = true (1)
SASPPRRFMIKVTYPDGKTTLSYGDDPEQTRAALEAQIAEEHPGNYTIEYTELSPDEWASPEKAEALLSSAG [r14_900_JUSTAS] = true (1)
SAGGSAGGSAGGNWVTIWIPFKMTHYRPDPDGKMYPHKHEMPRPITIPPGQATEDALDKISAGGSAGGSAGG [r7_777_TrROS] = false (0)
SAGGPMKPFLKNFSGPEEAIAFVNKLREELKGPVGLTLIFPDGSVIEVVDPQKLESIDNFEVIVTVSESAGG [r13_620_JUSTAS] = true (1)
SAGGAITLEYEVETEEEAEKAIEELEKELKEKFGGPVKIEKATIEKTEDPSVPREKYRLKLTIEINKSAGGS [r8_171_JUSTAS] = false (0)
SMPVTITITLHKDPNSDVIPVRLEMTDSAGNPIGEREIDYTTTEEEARERAVALAEEIAAATGYTIEFGESA [r9_31_JUSTAS] = true (1)
SAGGSAMTITVTLTFKSEEEALAAIRELAEALGLEIESVEIRYDPETEEVTVTATIRLPPPPPELLSAGGSA [r15_254_TrROS_Hall] = true (1)
SAGGSAGGSAGGMLVDPSTNTVTINLPPNTTLTFNYPDSTLTVTVPANETLTVTFPLTSSAGGSAGGSAGGS [r10_464_JUSTAS] = true (1)
SAGGSAGGSAGDIPAIPKVIFIPYPIEKIEVFEDSVVVRVIHPDGGSETIVFPDRALILGSAGGSAGGSAGG [r11_957_TrMRF] = true (1)
SNWITLKHTIKHPGREIKIEITAQPNPGGPYWIQVNIEVRDPNGEKEEVEITVPFRGMSIEDFLKNAADASA [r9_217_TrROS] = true (1)

stdin: Please indicate if the recorded folding stability dG unfold for SDALKNIPFEIVEIDPPPPDRPIPAGGTVRITVYNPLTPGQPFTFDVRFIPGEGTLIAEIGGLPVEIPIGSA [r9_243_TrMRF] meets or exceeds 1 kcal/mol.
stdout: true (1)

stdin: Please indicate if the recorded folding stability dG unfold for SMKVEIPPELVEAIEKALAEKKPGEEVEIEFEHPDGPLIRVRIEKDGRVRIEVFEHPDKLIAEFEFEPKPSA [r9_132_TrMRF] meets or exceeds 1 kcal/mol.
stdout: true (1)

stdin: Please indicate if the recorded folding stability dG unfold for SAGGSAGGSAGGVRIRPPNGEWIRIDNAPDDEDIKDKLKKHPNVKPEIDPDTNEAWIPVSAGGSAGGSAGGS [r10_792_TrROS] meets or exceeds 1 kcal/mol.
stdout: false (0)

stdin: Please indicate if the recorded folding stability dG unfold for SAGGSAGGSAGGGKKILGVQPELFYDPENGTLYVKTVAVGEDENGAPGDADISVEPFPLLSAGGSAGGSAGG [r7_892_TrMRF] meets or exceeds 1 kcal/mol.
stdout: false (0)

---

- test description: folding stability dG unfold from chymotrypsin proteolysis; higher = more stable
Note to self: values exactly at 1 kcal/mol are Yes. So folding stability dG unfold at or above 1 kcal/mol is Yes, below is No.

SAGGSAGGVVPLEELAKRLGWSPEFLRELEEKGIKVELERVTPDKVVVTLTEPGTGETKTIELPSAGGSAGG [r6_969_JUSTAS] = Yes
SATVTLVSVEKEGDKTTVTTRDPSGYTVTVTNPDGSIVLAPIPAEGAEAAIAAIKAAHPGVTVTLEAAASAG [r14_528_JUSTAS] = Yes
SWNLRLEIEEVEIEPSDNWIIIMVRVEIEGRNPDDPNKPRPVFEVWVMIPIPLPPPKPKPDPDDPAAAKDSA [r9_357_TrROS] = Yes

stdin: Please indicate if the recorded folding stability dG unfold for SAGGSAGGSGSMTTTTDPNSDITVSSIGSPSGPPVTATLNPKTGTVTVTVGGTPVTIPLDALSSAGGSAGGS [r12_650_JUSTAS] meets or exceeds 1 kcal/mol.
stdout: Yes

stdin: Please indicate if the recorded folding stability dG unfold for SAGGKTIWIFFPPDNPEEFLEELAQLPNVTDVEVWRHNDYYMIEIRLEGLPIEIHYNPEGYYMIEIELSAGG [r13_907_TrROS] meets or exceeds 1 kcal/mol.
stdout: Yes

stdin: Please indicate if the recorded folding stability dG unfold for SAGGSAGGSAGEAASSLKLPPVTLTTPPVPVELPPGLTVESVEPVRTPSGETILVVNLVRSAGGSAGGSAGG [r11_388_JUSTAS] meets or exceeds 1 kcal/mol.
stdout: No

stdin: Please indicate if the recorded folding stability dG unfold for SAGGSFVKIKVKFDNKPIEIPIPDFVQKVEGDYQTIVFPEGDADSVLKKLKEASKKIEIVKVEVVKPSAGGS [r8_490_TrMRF] meets or exceeds 1 kcal/mol.
stdout: No

---

I'd appreciate it if you could supply folding stability dG unfold values for the items below.
- test description: folding stability dG unfold from chymotrypsin proteolysis; higher = more stable
Give bare numbers, in kcal/mol.

Solved cases (4 shown):
SAGGETVTLTLKVETLEELEALAKKLAEETGEEVTIEVIGPDGKKYTFKTPEELKNIPGATVKITIKKSAGG [r13_620_TrROS_Hall] = 2.96
SAGMEVEWEIGDADEDGYVRLTVKAVLLIPETGKPVVVEAEIKMPIEELENEEVLKELARKVVEEAEAESAG [r5_964_TrMRF] = 2.1
SAGGSAGGSAGGMEKLSETVTETVEVTLTSGDKTYTFTVTTTTVVLPDGTVETLEVTLQPSAGGSAGGSAGG [r11_95_JUSTAS] = 3.42
SAGGSAGGSAGGKKLRIKVKNKKTGKEIEIEIDVEDKTIEEIAKELAKKLNFEVTEIEPVSAGGSAGGSAGG [r7_590_TrROS_Hall] = 2.9

Field: folding stability dG unfold. Fill in for each record below.
1. SAAVTPLTETIPYTPEEARAAAEEVAAARAAALRAAGYRVLSVDVVEMEPGEYVIRMRLTVAAPDEALPSAG [r14_973_JUSTAS]
2. SAGGSAGGSASMKEVTILVKKKLPGGEEEESVTTVTLNPNEIDKVKEEFKKKGWEVVKVVSSAGGSAGGSAG [r3_453_JUSTAS]
3. SAAFAIKAIATPPNGKKYEILALDNGEGVLVFIENGSKEIPLEELIKLIENNPELKIEKIEIRPLSEFLSAG [r14_336_TrMRF]
4. SAALAELLLNEGYEVRIEVEVREVRPRTLPGGGTTVELDITVRIELRPPPIPPPPLDPRLLRDEDGHLRSAG [r14_569_TrMRF]
5. SAGGSAFKGMPPEQVKRVIEIDHPNGKDIYIVRYKGPGHMMIFPPKEGKPIYIPMPLDEIKEFLLSSAGGSA [r15_810_TrROS]

stdout:
3.12
1.74
0.486
1.95
0.672

Field: folding stability dG unfold. Fill in for each record below.
1. SAGEEVYLITVRIIDPETNEVKEITKLIKNKTEDEILEELRKLLEELGIELPEGAKVEITITKIKPPPESAG [r5_230_TrROS_Hall]
2. SAGKKSTLTIDLPGSTVTLTYDPATGKVRITVNLGVAVAGIDPETGKPGIVTGSVTLEADIDVPPGAPISAG [r5_195_TrMRF]
3. SAGMVVRITVLPEGEEREFVVAATPEEARELLEELGYEVEEFPELPVLVARRPDAVVLVEFIPVAPDALSAG [r5_248_TrMRF]

stdout:
1. 4.07
2. 2.68
3. 2

Field: folding stability dG unfold. Fill in for each record below.
1. SAGGGMSTTTETTIRIYVKDPQGNPVFVAELTVTVTTSPSGEVTIHLPPEFLKALPPNYTIAKIEVTSAGGS [r16_295_JUSTAS]
2. SAGGSAITIEVTMNPNGYMGIRLRDPGNGEEIQIPFPMEPGQNPEDVRNWAREIVDELKKDGWRIYSAGGSA [r15_1022_TrROS]

stdout:
4.13
1.76
